A collection of molecules and their measured normalized growth
experiment: chemical genetic growth profiling, strain panel (AID 1159580);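 further: tested at 20 µM; growth read once vehicle control cultures reached saturation at 30 °C; 1 = growth at the plate median or of vehicle wells; lower values mean less growth of the strain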; conditions: S. cerevisiae deletion strains, growth OD, locus YOR290C, strain snf2, stronger effect = lower value
Out of some 5,500 compounds screened, about 2,000 (36%) were called active. Roughly 18% stayed inconclusive and do not appear here. The list shows a part of the results.

Some entries whose results are on file:
molecule	measured.attribute	result
Cc1[nH]c2ccccc2c1CN(C)C	normalized growth	1.01 (inactive)
O=c1cccc2ccc(O)c(O)c2c1O	normalized growth	0.376 (active)
CC(=O)O[C@H]1C[C@@H](OC(C)=O)C(C)(C)C2CC(=O)[C@]3(C)C(CC[C@@]4(C)[C@H](C(=O)O)OC(=O)C5OC543)[C@]21C (stereo partly specified)	normalized growth	0.969 (inactive)
COC(=O)C1=COC(OC2OC(CO)C(O)C(O)C2O)C2C(C)CC(=O)C12 (stereo unspecified)	normalized growth	1.03 (inactive)
C[C@H]1COc2c(N3CCN(C)CC3)c(F)cc3c(=O)c(C(=O)O)cn1c23	normalized growth	1.03 (inactive)

The recorded normalized growth for entry CO/N=C1/CN(c2nc3c(cc2F)c(=O)c(C(=O)O)cn3C2CC2)CC1CN (stereo unspecified) equals 1.03 (inactive)

Form field normalized growth, entry `NCCc1cnc[nH]1` : 0.969 (inactive)

Please fill in: normalized growth reported for c1ccc2c(c1)CCCC2C1=NCCN1 (stereo unspecified) = 1.04 (inactive)

Record summary for CC1CCc2cc(F)cc3c(=O)c(C(=O)O)cn1c23 (stereo unspecified) : reported normalized growth = 0.955 (inactive)

normalized growth reported for this molecule `COC(=O)c1cc(=O)c(O)c2c(O)c(O)ccc2c1` : 0.94 (inactive)

# normalized growth (molecule: Cn1c(=O)c2c(ncn2CC(O)CO)n(C)c1=O (stereo unspecified) ) is 0.954 (inactive)

Where these numbers come from: PubChem BioAssay AID1159580
